For each of the compounds below, state its Ki.
- TARGET SYSTEM: UniProtKB A0MJA5
- Sequence (A0MJA5 1-1332): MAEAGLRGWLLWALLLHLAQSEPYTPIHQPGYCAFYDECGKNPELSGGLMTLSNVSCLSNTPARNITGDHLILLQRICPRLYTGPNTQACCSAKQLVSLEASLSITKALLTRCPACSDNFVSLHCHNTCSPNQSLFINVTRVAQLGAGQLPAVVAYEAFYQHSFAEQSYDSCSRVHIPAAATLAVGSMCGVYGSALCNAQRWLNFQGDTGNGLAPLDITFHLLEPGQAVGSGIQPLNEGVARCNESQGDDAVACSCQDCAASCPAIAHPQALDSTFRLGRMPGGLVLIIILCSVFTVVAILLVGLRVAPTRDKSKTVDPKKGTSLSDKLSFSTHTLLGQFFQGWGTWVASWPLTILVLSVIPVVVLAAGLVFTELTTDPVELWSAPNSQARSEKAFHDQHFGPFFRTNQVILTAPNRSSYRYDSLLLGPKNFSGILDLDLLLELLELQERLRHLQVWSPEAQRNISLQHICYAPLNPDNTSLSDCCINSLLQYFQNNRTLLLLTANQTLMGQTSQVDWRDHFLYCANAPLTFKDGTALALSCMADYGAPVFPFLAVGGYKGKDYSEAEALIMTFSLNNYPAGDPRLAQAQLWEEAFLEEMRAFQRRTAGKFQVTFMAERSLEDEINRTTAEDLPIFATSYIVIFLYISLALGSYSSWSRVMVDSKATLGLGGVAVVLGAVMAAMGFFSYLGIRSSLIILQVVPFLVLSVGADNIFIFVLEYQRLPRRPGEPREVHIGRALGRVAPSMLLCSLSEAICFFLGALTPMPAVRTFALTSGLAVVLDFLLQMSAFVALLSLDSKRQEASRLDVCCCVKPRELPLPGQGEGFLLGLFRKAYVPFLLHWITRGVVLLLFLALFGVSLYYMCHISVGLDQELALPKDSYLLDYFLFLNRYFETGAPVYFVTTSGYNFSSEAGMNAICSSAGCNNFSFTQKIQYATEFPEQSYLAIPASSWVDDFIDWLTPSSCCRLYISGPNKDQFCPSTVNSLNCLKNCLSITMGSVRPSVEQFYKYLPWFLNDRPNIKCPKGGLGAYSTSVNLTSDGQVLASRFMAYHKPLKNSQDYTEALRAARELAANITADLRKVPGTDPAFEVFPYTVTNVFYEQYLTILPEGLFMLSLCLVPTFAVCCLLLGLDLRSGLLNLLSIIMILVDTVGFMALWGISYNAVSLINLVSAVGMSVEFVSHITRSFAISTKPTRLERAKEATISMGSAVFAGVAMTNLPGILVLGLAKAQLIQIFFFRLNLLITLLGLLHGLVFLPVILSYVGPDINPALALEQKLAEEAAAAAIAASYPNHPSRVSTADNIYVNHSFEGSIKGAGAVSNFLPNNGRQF
- TEST SUMMARY: Binding assay with rhesus brush border membrane vesicles
- REPORTED CONDITIONS: Monkey BBM Ki (nM), 0.03% sodium taurocholate and 0.05% digitonin; 1.25 mg protein/ml, 20 nM 1

O=C(O)[C@H]1O[C@@H](Oc2ccc([C@@H]3[C@@H](CC[C@@H](O)c4ccc(F)cc4)C(=O)N3c3ccc(F)cc3)cc2)[C@H](O)[C@@H](O)[C@@H]1O | 120 nM
O=C(O)C1OC(Oc2ccc(C3C(CCC(O)c4ccc(F)cc4)C(=O)N3c3ccc(F)cc3)cc2)C(O)C(O)C1O (single isomer, unassigned) | 22000 nM

With those in mind, consider the next compound.
Enquiry: Given the entry O=C(O)[C@H]1O[C@@H](Oc2ccc([C@@H]3[C@@H](CC[C@H](O)c4ccc(F)cc4)C(=O)N3c3ccc(F)cc3)cc2)[C@H](O)[C@@H](O)[C@@H]1O [Compound 1, Ezetimibe glucuronide] , what Ki was observed with UniProtKB A0MJA5?
Return: 15 nM
